assay: Microsomal stability assay, human liver microsomes; conditions: human liver microsomes;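 note: pooled human liver microsomes at 0.25 mg/mL with 1 µM compound and NADPH at 37 °C, pH 7.4, for 30 min, unchanged parent quantified by LC-MS/MS against the 0 min sample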
Documented log10 HLM across a set of compounds
Reminder: these figures are log10 of reported HLM, in µL/min/mg before transformation.

In [3]: df
Out[3]:
                        structure_as_smiles  measured_attribute  readout_number
0  CO[C@H](C)C(=O)N[C@@H](Cc1ccc2c(c1)OCO2)[C@H](O)CN[C@H]1CC2(CCC2)Oc2c1cc(CC(C)C)nc2Cl           log10 HLM            1.98
1  CC(=O)N[C@@H](Cc1ccc(F)c(-c2ccncc2)c1)[C@H](O)CN[C@H]1CC2(CCC2)Oc2ncc(CC(C)(C)C)cc21           log10 HLM            2.09
2  COC(OC)C(=O)N[C@@H](Cc1ccc2c(c1)OCO2)[C@H](O)CN[C@H]1CC2(CCC2)Oc2ncc(CC(C)C)cc21           log10 HLM            1.46
3  COCC(=O)N[C@@H](Cc1cc(F)cc(F)c1)[C@H](O)CN[C@H]1CC2(CCC2)Oc2c1cc(CC(C)C)nc2Cl           log10 HLM            2.60
4  CC(=O)N[C@@H](Cc1cccc(-c2nccs2)c1)[C@H](O)CN[C@H]1CC2(CCC2)Oc2ccc(CC(C)(C)C)cc21           log10 HLM            2.01

# log10 HLM lookup, item CO[C@H](C)C(=O)N[C@@H](Cc1ccc2c(c1)OCO2)[C@H](O)CN[C@H]1CC2(CCC2)Oc2cnc(CC(C)C)cc21
2.15

* * *

Recorded RLM for the following compounds
assay: Microsomal stability assay, rat liver microsomes; settings: rat liver microsomal data;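 note: rat liver microsomes (0.25 mg/mL) with about 1 µM compound plus 1 mM NADPH, pH 7.4, 37 °C for 30 min, parent left measured by LC-MS/MS against 0 min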
Output spec: scalar in µL/min/mg, unitless text.

Here are 5 compounds together with their reported answers.
>>> print(df.to_string())
                                   compound  measured_attribute  readout_number
0  COC(OC)C(=O)N[C@@H](Cc1cc(F)cc(-c2nccs2)c1)[C@H](O)CN[C@H]1CC2(CCC2)Oc2ncc(CC(C)(C)C)cc21                 RLM              73
1  C#Cc1cc(C#C)cc(C[C@H](NC(=O)COC)[C@H](O)CN[C@H]2CC3(CCC3)Oc3ncc(CC(C)(C)C)cc32)c1                 RLM              88
2  COCC(=O)N[C@@H](Cc1ccc2c(c1)OCO2)[C@H](O)CN[C@H]1CC2(CCC2)Oc2ccc(C[C@@H](C)F)cc21 [compound 498]                 RLM             206
3  COCC(=O)N[C@@H](Cc1cc(F)cc(F)c1)[C@H](O)CN[C@H]1CC2(CCC2)Oc2c(-c3nccs3)cc(CC(C)(C)C)cc21                 RLM             662
4  COCC(=O)N[C@@H](Cc1cc(F)cc(-c2nccs2)c1)C(=O)CN[C@H]1CC2(CCC2)Oc2ncc(CC(C)C)cc21                 RLM             128

Shifting focus to the compound that follows.
Which RLM is reported for this compound? COCC(=O)N[C@H](Cc1cccc(-c2nccs2)c1)[C@@H](O)CN[C@H]1CC2(CCC2)Oc2ncc(C3CCCC3)cc21
271
